Catalogue of sequences with associated apparent KD of MS2 coat protein
- Test system: MS2 coat protein
- experiment.summary: apparent KD of MS2 coat protein; designed switch direction (-1 OFF switch, 1 ON switch): 1; higher = weaker reporter binding
- particulars: input ligand: microRNA oligo, concentration not stated
Reply numerically in nM, unit not repeated.

// worked examples, apparent KD of MS2 coat protein included
item.sequence	study.target	apparent KD of MS2 coat protein (nM)
CCGUAGAUGGUAGGAUAUGGAGCCUUAUUGGCUCCAGAAGGAUCUAAAACAUGAGGAUCACCCAUGUCGGCGGUCAAUAGACCG [Eli NG1ss - 83] (Eterna round: R96, puzzle: Same State NG 1)	MS2 coat protein	65.1
ACAUGAAAUUCAGGAUAUUUUGUACCUACAUGUGACAUGAGGAUCACCCAUGUGGUAAGUAUGAGAAAGAAGGGAAAGAUAUGU [Equivalence 10 - Jieux - Same State NG 2] (Eterna round: R96, puzzle: Same State NG 2)	MS2 coat protein	41.9
GGAAUAUUUACAGGAUAUGAGUUGUAAAGUCGAUCAGAAGGGUAGAUGUCUUACACGGUUUGUUACAUGAGGAUCACCCAUGUU [SameState NG1 #18] (Eterna round: R96, puzzle: Same State NG 1)	MS2 coat protein	75.6

# ---- query sequence ----
Give me measured apparent KD of MS2 coat protein, please, for this sequence: AAUUUAAUACAUGAGGAUCACCCAUGUAAAUUAAUUAAGAUCAAGGAUAUCAGCUCGUUUAGAGCUGAGAAGGUGAUCACAUGU [SSNG3/19-A3] (Eterna round: R96, puzzle: Same State NG 3)
163
